Target: human SMVT (SLC5A6) (Homo sapiens, UniProt Q9Y289)
Construct: The complete open reading frame of human SMVT (SLC5A6) was amplified; expressed in transfected cells; host or cells: Xenopus oocytes injected with 10-30 ng cRNA transcribed from the pMO plasmid
Sequence (Q9Y289 1-635): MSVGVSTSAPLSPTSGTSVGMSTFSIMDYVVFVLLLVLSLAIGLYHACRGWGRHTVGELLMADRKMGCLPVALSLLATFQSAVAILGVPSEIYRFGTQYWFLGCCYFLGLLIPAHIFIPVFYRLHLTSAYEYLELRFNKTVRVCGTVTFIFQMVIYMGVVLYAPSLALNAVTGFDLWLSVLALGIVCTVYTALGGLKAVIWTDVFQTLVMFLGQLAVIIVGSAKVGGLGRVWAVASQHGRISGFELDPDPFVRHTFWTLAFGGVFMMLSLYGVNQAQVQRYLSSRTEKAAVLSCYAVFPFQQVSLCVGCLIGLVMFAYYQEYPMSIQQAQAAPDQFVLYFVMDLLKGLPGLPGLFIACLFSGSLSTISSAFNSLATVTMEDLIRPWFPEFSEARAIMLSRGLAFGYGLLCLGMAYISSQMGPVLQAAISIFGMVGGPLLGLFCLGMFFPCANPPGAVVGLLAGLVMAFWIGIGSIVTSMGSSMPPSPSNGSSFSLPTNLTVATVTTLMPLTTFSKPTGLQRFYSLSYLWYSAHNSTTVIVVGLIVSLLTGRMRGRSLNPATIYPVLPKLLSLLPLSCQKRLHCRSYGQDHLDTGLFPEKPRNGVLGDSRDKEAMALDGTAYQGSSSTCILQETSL
Experiment: Two-electrode voltage-clamp transport currents in SMVT-expressing Xenopus oocytes
Type: cell-based
Conditions: % max response relative to biotin, transporter-expressing oocytes, test compound 0.5 mM
Known Vmax as a % of Biotin Vmax of a selection of compounds
Please respond with the number in % and leave the unit unwritten.

{"columns": ["compound", "Vmax as a % of Biotin Vmax (%)"],
 "data": [
  ["CCC(=O)OC(OC(=O)NCC1(CC(=O)O)CCCCC1)C(C)C (stereo not shown) [(9)]", 19]
]}

I would be grateful if you could share the reported Vmax as a % of Biotin Vmax for NCC1(CC(=O)O)CCCCC1 [Gabapentin, reference compound] . 0

I would be grateful if you could share the reported Vmax as a % of Biotin Vmax for CC(C)(C)C(=O)OCOC(=O)NCC1(CC(=O)O)CCCCC1 [(1)] . 21

I would be grateful if you could share the reported Vmax as a % of Biotin Vmax for CC(OC(=O)NCC1(CC(=O)O)CCCCC1)OC(=O)C(C)C (stereo not shown) [(6)] . 46

###

Known bioavailability of a selection of molecules
Assay: in vivo
Conditions: male, Sprague-Dawley, rat, po, 200 mg/kg
Protocol: Test compounds were administered as an intravenous bolus injection or by oral gavage to groups of four to six adult male Sprague-Dawley rats (weight approx 250 g) as solutions in water or water/ethanol (90:10). […] Blood was processed immediately for plasma and plasma was frozen at −80° C. until analyzed. Concentrations of test compound in plasma were determined using an API 2000 LC/MS/MS instrument equipped with an Agilent 1100 binary pump and an Agilent autosampler. […]
Please respond with the number in % and leave the unit unwritten.

{"columns": ["molecule", "bioavailability (%)"],
 "data": [
  ["O=C(O)CCCC[C@@H]1SC[C@@H]2NC(=O)N[C@@H]21", 27]
]}

Now for another entry.
I would be grateful if you could share the reported bioavailability for CC(C)(CO)[C@@H](O)C(=O)NCCC(=O)[O-].[Na+] [pantothenate, sodium pantothenate] . 10

// data source = patent US20030158089A1
